system: HEY/NIH microtissues (HEY-GFP ovarian cancer cells + NIH3T3 fibroblasts); assay type: cell-based, human; conditions: read-out: IC50 ATP; HEY/NIH spheroids, ATP content at treatment day 7
Field: IC50. Provide a value for each of the molecules that follow.
Give bare numbers, in nM.

Worked examples, 3 molecules total:
molecule | measured.target | readout.name | unit.label | measured.number
c1cncc(CN2CCC(n3ncc4c(N5CCOCC5)nc(-c5ccc6[nH]ccc6c5)nc43)CC2)c1 | HEY/NIH microtissues (HEY-GFP ovarian cancer cells + NIH3T3 fibroblasts) | IC50 | nM | 1680
C=CC(=O)Nc1cc2c(Nc3ccc(F)c(Cl)c3)ncnc2cc1C#CC(C)(C)N1CCN(C)CC1 | HEY/NIH microtissues (HEY-GFP ovarian cancer cells + NIH3T3 fibroblasts) | IC50 | nM | 1290
CSc1cccc(Nc2ncc3cc(-c4c(Cl)cccc4Cl)c(=O)n(C)c3n2)c1 | HEY/NIH microtissues (HEY-GFP ovarian cancer cells + NIH3T3 fibroblasts) | IC50 | nM | 479

Return reported IC50 values for all items listed beneath this line.
1. O=C1C(Cl)=C(NCCN2CCOCC2)C(=O)c2ncccc21
2. O=C(O)C1CCCN(CCC=C(c2ccccc2)c2ccccc2)C1 (centres unmarked) [SK&F-89976A]

7360
15300

====

Field: IC50. Provide a value for each of the molecules that follow.
test system: HEY/NIH microtissues (HEY-GFP ovarian cancer cells + NIH3T3 fibroblasts); assay type: cell-based, human; settings: read-out: IC50 ATP; HEY/NIH spheroids, ATP content at treatment day 7
Answers are plain numbers, in µM.

Return reported IC50 values for all items listed beneath this line.
1. CN(C)CCCN=c1c2ccccc2n(C)c2[nH]c(=O)n(C)c(=O)c12
2. Cc1ccc(-c2ncn(-c3ccc(Nc4nccc(-c5cccc(N6CCOCC6)c5)n4)cc3)n2)cn1
3. CC1=C(C(=O)Nc2cc3cn[nH]c3cc2F)C(c2ccc(Cl)cc2F)N=C(c2ccnc(Cl)c2)N1 (stereo not shown)
4. Nc1ccc(-c2ccc3ncc4ccc(=O)n(-c5cccc(C(F)(F)F)c5)c4c3c2)cn1

[3.75, 0.058, 6.1, 0.027]

====

system: PANC/NIH microtissues (PANC-1 pancreatic cancer cells + NIH3T3 fibroblasts); type: cell-based, human; details: read-out: IC50 ATP; PANC/NIH spheroids, ATP content at treatment day 7
pIC50: −log10 of the molar value.
Label criterion met when pIC50 is at or above 6; otherwise label criterion not met.

Some entries whose results are on file:
compound | assigned.class
CC1=C(C(=O)Nc2cc3cn[nH]c3cc2F)C(c2ccc(Cl)cc2F)N=C(c2ccnc(Cl)c2)N1 (stereo not shown) [GSK-25] | criterion not met
CNC(=O)[C@H](Cc1c[nH]c2ccccc12)NC(=O)[C@@H](CC(=O)NO)CC(C)C [GM-6001] | criterion not met
c1cncc(CN2CCC(n3ncc4c(N5CCOCC5)nc(-c5ccc6[nH]ccc6c5)nc43)CC2)c1 [WAY-600] | criterion not met
Cc1ccc(-c2ncn(-c3ccc(Nc4nccc(-c5cccc(N6CCOCC6)c5)n4)cc3)n2)cn1 [SR-3306] | criterion met

Does the reported pIC50 for Nc1ccc(-c2ccc3ncc4ccc(=O)n(-c5cccc(C(F)(F)F)c5)c4c3c2)cn1 [Torin-2] fall at or above the 6 mark?
criterion met

Does the reported pIC50 for C=CC(=O)Nc1cc2c(Nc3ccc(F)c(Cl)c3)ncnc2cc1C#CC(C)(C)N1CCN(C)CC1 [AV-412] fall at or above the 6 mark?
criterion not met

Where these numbers come from: paper PMC11271247
